Target: Estrogen receptor (Rattus norvegicus) (UniProt P06211+Q62986)
Test: Relative binding affinity (RBA) for estrogen receptor of rat uterine cytosol compared to [3H]estradiol
Format: protein assay
Lab note: compare relative binding affinity (RBA) against 2. Equal or greater, write yes (1). Smaller, write no (0).

Before answering, review these 5 worked examples.
# structure.notation, class
measured = [
    ("CC[C@@H](c1ccc(O)cc1)[C@H](CCCCCl)c1ccc(O)cc1", "yes (1)"),
    ("CCCC[C@H](c1ccc(O)cc1)[C@@H](CC)c1ccc(O)cc1", "yes (1)"),
    ("CC[C@@H](c1ccc(O)cc1)[C@H](CCCCI)c1ccc(O)cc1", "no (0)"),
    ("CC[C@@H](c1ccc(O)cc1)[C@H](CCCCOC(=O)NCCCl)c1ccc(O)cc1", "no (0)"),
    ("CCCCCCCC[C@H](c1ccc(O)cc1)[C@@H](CC)c1ccc(O)cc1", "no (0)"),
]

Q: # bool: relative binding affinity (RBA) of CC[C@@H](c1ccc(O)cc1)[C@H](CCCC(=O)Oc1ccc(Cl)cc1)c1ccc(O)cc1 >= 2
A: no (0)

Q: Moving on to CC[C@@H](c1ccc(O)cc1)[C@H](CCCC(=O)O)c1ccc(O)cc1
A: no (0)

Q: Moving on to CC[C@@H](c1ccc(O)cc1)[C@H](CCCC(=O)Oc1c(Cl)c(Cl)c(Cl)c(Cl)c1Cl)c1ccc(O)cc1
A: no (0)

Q: Moving on to CC[C@@H](c1ccc(O)cc1)[C@H](CCCCO)c1ccc(O)cc1
A: no (0)

Q: Moving on to CC[C@@H](c1ccc(O)cc1)[C@H](CCCC(=O)N(CC)CC)c1ccc(O)cc1
A: no (0)

Q: Moving on to CCOCCCC[C@H](c1ccc(O)cc1)[C@@H](CC)c1ccc(O)cc1
A: no (0)

Q: Moving on to CC[C@@H](c1ccc(O)cc1)[C@H](CCCCOS(C)(=O)=O)c1ccc(O)cc1
A: no (0)
